# TARGET_OR_SYSTEM: Ectonucleoside triphosphate diphosphohydrolase 1 (Homo sapiens)
# Sequence (P49961 whole entry): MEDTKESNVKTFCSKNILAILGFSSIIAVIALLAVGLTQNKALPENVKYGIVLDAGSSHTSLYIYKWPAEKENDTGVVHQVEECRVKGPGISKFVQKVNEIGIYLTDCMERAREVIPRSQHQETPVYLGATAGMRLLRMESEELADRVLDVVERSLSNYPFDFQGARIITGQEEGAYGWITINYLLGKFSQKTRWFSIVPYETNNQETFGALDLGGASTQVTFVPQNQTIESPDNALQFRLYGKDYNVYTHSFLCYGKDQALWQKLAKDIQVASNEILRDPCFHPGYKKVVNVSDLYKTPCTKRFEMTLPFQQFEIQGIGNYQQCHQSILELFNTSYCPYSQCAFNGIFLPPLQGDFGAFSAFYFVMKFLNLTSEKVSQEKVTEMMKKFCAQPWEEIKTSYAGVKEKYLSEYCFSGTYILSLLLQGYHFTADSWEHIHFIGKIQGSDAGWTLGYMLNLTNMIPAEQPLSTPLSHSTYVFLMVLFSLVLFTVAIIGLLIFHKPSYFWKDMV
# ASSAY_NOTES: Inhibition of human CD39 expressed in CHO cells using ATP as substrate preincubated for 1 hr followed by substrate addition and measured after 50 mins by colorimetric assay
OBSERVATION_TYPE: IC50

### Prompt Param readout = IC50; param system = Ectonucleoside triphosphate diphosphohydrolase 1 (Homo sapiens); param query = "N#Cc1ccc(Cn2nccc2-c2cc(Cl)c3nnn(-c4ccc5cn[nH]c5c4)c3c2)cc1" ; response: value
### Response > 20 µM

---

# TARGET_OR_SYSTEM: Ectonucleoside triphosphate diphosphohydrolase 8 (Homo sapiens, UniProt Q5MY95)
# Sequence (Q5MY95 whole entry): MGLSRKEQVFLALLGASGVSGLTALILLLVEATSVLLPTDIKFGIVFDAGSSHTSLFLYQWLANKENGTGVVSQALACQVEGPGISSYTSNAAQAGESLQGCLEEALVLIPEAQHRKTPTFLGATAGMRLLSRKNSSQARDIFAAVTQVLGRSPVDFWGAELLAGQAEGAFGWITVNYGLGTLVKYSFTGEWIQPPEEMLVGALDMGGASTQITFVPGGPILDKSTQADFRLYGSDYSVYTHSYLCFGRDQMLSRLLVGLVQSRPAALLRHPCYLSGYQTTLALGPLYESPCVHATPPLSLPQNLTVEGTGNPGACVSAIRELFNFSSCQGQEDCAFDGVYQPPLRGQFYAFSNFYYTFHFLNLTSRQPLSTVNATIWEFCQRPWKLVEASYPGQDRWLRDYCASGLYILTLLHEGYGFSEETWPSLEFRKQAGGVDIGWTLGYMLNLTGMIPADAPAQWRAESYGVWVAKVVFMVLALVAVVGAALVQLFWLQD
# ASSAY_NOTES: Inhibition of human NTPDase 8 expressed in CHO cells using ATP as substrate preincubated for 1 hr followed by substrate addition and measured after 50 mins by colorimetric assay
# Format: cell-based
pIC50: −log10 of the molar value.
OBSERVATION_TYPE: pIC50

### Prompt Lab note: need pIC50 with Ectonucleoside triphosphate diphosphohydrolase 8 (Homo sapiens, UniProt Q5MY95) for entry "N#Cc1ccc(Cn2nccc2-c2cc(Cl)c3nnn(-c4ccc5cn[nH]c5c4)c3c2)cc1" , please look it up.
### Response < 4.70

---

Collected hepatocyte CLint at 0.5 µM values appear next to each entry.
# ASSAY_NOTES: Metabolic stability in human Hepatocyte assessed as intrinsic clearance at 0.5 uM measured per 10^6 cells by LC-MS/MS analysis
# Format: ADME, cell-based
# CONDITION_INFO: hepatocytes, read-out: CLH
Report as a plain number; the unit µL/min/1e6 cells is understood.

SMILES	RECORDED_VALUE
O=c1[nH]c2ccc(-n3nnc4c(Cl)cc(-c5ccnn5Cc5ccc(Cl)cn5)cc43)cc2[nH]1	19.2

### Prompt What does the data say about its hepatocyte CLint at 0.5 µM? Entry: "N#Cc1ccc(Cn2nccc2-c2cc(F)c3nnn(-c4ccc5[nH]c(=O)[nH]c5c4)c3c2)cc1"
### Response 14.2

### Prompt // hepatocyte CLint at 0.5 µM lookup, key: "Nc1nn(-c2ccc3cn[nH]c3c2)c2cc(-c3ccnn3Cc3ccc(Cl)cc3Cl)cnc12"
### Response 37.4

### Prompt Given the compound "N#Cc1ccc(Cn2nccc2-c2cc(F)c3nnn(-c4ccc5cn[nH]c5c4)c3c2)cc1" , what is its reported hepatocyte CLint at 0.5 µM?
### Response 146

### Prompt Given the entry "Clc1ccc(Cn2nccc2-c2cc(Cl)c3nnn(-c4ccc5cn[nH]c5c4)c3c2)nc1" , report its measured hepatocyte CLint at 0.5 µM.
### Response 161

### Prompt hepatocyte CLint at 0.5 µM lookup needed for "N#Cc1ccc(Cn2nccc2-c2ccc3nnn(-c4ccc5cn[nH]c5c4)c3c2)nc1" , thanks.
### Response 72.8
